The entries that follow carry pIC50 values tested on Activin receptor type-1 (Homo sapiens), drawn from several published reports.
pIC50: −log10 of the molar value.

Cc1ccc(Nc2ccnc(Nc3ccc(N4CCN(CCO)CC4)c(Cl)c3)n2)c(CC#N)c1: 6.00 to 8.00
COc1cc(Nc2nccc(Nc3cccnc3-c3ccccn3)n2)cc(OC)c1OC: > 8.00
CCn1cnc(-c2ccc3c(-c4cnc5cc(-c6ccc(CN7CC8CCC7CC8)cc6)c(C)nn45)ccnc3n2)c1: ≥ 9.00
CN1CCN(c2ccc3[nH]c(-c4cc(-c5ccc(CO)cc5)c[nH]c4=O)nc3c2)CC1: 7.96
CN1CCN(c2ccc(Nc3ncc(C#N)c(Nc4cccc(CC#N)c4)n3)cc2F)CC1: < 6.00

Request: Please indicate recorded pIC50 of `Cn1cnc(Nc2nc(Cl)nc3ccoc23)c1` measured with Activin receptor type-1 (Homo sapiens).
Response: < 6.00

Request: Please indicate recorded pIC50 of `OC[C@@H]1CCCN1c1nc(Nc2cn(-c3ccccc3)cn2)c2cccn2n1` measured with Activin receptor type-1 (Homo sapiens).
Response: > 7.00
